- Target Or System: UniProtKB P11511
- Sequence (P11511 whole entry): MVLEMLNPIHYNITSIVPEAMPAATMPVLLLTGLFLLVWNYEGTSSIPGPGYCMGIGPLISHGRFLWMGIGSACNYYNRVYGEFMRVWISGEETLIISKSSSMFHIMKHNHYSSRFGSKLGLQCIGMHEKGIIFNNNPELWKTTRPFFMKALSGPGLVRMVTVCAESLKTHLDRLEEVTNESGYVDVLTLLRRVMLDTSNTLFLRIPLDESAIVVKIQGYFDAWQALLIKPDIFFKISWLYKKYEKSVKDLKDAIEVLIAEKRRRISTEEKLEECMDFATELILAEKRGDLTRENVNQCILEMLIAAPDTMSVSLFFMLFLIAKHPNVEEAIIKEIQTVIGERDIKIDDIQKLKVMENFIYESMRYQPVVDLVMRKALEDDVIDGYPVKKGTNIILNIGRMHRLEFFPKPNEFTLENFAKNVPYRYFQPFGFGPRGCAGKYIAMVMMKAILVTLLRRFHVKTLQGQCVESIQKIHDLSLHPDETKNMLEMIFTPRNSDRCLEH
- Sequence (P16435 2-677 partner): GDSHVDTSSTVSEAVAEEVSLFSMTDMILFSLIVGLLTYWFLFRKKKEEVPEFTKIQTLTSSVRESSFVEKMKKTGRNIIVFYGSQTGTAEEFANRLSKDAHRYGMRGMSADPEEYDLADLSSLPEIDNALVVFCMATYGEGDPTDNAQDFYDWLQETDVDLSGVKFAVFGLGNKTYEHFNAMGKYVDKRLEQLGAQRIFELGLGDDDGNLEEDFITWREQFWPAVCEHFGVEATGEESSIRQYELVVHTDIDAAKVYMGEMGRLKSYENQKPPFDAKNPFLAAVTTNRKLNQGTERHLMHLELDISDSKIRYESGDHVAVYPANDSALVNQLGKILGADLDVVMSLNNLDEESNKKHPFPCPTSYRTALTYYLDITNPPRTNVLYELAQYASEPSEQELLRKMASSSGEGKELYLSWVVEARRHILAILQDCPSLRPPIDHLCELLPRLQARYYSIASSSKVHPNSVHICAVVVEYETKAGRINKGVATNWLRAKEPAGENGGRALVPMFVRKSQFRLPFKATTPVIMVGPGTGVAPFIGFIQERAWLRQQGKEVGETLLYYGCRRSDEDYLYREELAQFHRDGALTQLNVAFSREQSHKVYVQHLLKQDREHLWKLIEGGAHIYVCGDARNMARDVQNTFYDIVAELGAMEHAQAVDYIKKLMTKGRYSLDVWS
- Measurement Notes: cell-based
- Set-up: Whole-yeast human CYP19A1/CPR testosterone aromatization; estradiol quantified by yeast biosensor fluorescence, flow cytometry, per cent of control
- Experimental Context: Saccharomyces cerevisiae byMM1712; 1 uM inhibitor, testosterone substrate; read-out: % of control remaining
Test Readout: remaining activity at 1 µM (%)

Worked set:
O=C(NCc1ccc(-n2ccnc2)cc1)C1=Cc2cc(Cl)ccc2OC1 [9b] ... 58
CC1(c2ccc(Cl)cc2Cl)OCC(Cn2cncn2)O1 (stereo not shown) [compound 8] ... 57

(A) CC(NC(=O)c1cc2cc(Cl)ccc2oc1=O)c1ccc(-n2ccnc2)cc1 (racemic) [compound 9]
(B) O=C(NCc1ccc(-n2ccnc2)cc1)c1cc2ccccc2oc1=O [9a]
Compare A and B by numeric remaining activity at 1 µM and name the larger one. # respond with the chosen item's label
B
